Test system: corn borers
Conditions: concentration 600 mg/kg
ASSAY METRIC: Corn borer Mortality (%)
Write the numeric value and append its unit.

Below, each entry is followed by its recorded Corn borer Mortality (%) result.
1. C[C@@H]1N[C@H](C(=O)NN=Cc2ccco2)Cc2c1[nH]c1ccccc21 15%
2. C[C@@H]1N[C@H](C(=O)NN=Cc2ccc(C(C)(C)C)cc2)Cc2c1[nH]c1ccccc21 5%

Recorded Corn borer Mortality (%) for C[C@@H]1N[C@H](C(=O)NN=Cc2ccc(Cl)c(Cl)c2)Cc2c1[nH]c1ccccc21 , please?
5%

###

Each record here notes measured Bactericidal activity (%) Fusarium fujikuroi.
Tested on: Fusarium fujikuroi
Experiment: Fungicidal (bactericidal) activity in vitro, PDA colony diameter
Format: cell-based
Conditions: 50 mg/kg
Give the number; % is assumed, so skip it.

Below, each entry is followed by its recorded Bactericidal activity (%) Fusarium fujikuroi result.
1. CCOC(=O)[C@@H]1Cc2c([nH]c3ccccc23)CN1 64.3
2. C[C@@H]1N[C@H](C(=O)NN=CC2CCCCC2)Cc2c1[nH]c1ccccc21 41.2
3. C[C@@H]1N[C@H](C(=O)NN=Cc2ccc(N(C)C)cc2)Cc2c1[nH]c1ccccc21 35.7

Next up:
Recorded Bactericidal activity (%) Fusarium fujikuroi for C[C@@H]1N[C@H](C(=O)NNC(=O)C2CCCC2)Cc2c1[nH]c1ccccc21 , please?
29.4
